The values you see were collected from patent US11286258B2.

- Test system: MRSA-2 (clinical isolate)
- assay comment: MIC broth microdilution, MRSA-2
- Format: cell-based, Staphylococcus aureus
- study conditions: Staphylococcus aureus, MRSA; overnight incubation, Mueller-Hinton broth; read-out: MIC MRSA-2 (clinical isolate)
parameter measured: MIC (µg/mL)
Give the number; µg/mL is assumed, so skip it.

Study these solved cases before continuing.
COc1ccc2c(c1)c1c3n2[C@@]2(C=C/C(=N\Nc4ccc(C(F)(F)F)cc4)CC2)CC[C@@H]3NCC1 [Compound 1k] : 1.56
Brc1ccc(N/N=C2\C=C[C@@]3(CC2)CC[C@@H]2NCCc4c2n3c2ccccc42)cc1 [Compound 1c] : 3.12
Oc1ccc2c(c1)c1c3n2[C@@]2(C=C/C(=N\Nc4ccc(C(F)(F)F)cc4)CC2)CC[C@@H]3NCC1 [Compound 1i] : 3.12

Look up MIC for this compound: Cc1ccc2c(c1)c1c3n2[C@@]2(C=C/C(=N\Nc4ccc(C(F)(F)F)cc4)CC2)CC[C@@H]3NCC1 [Compound 1h]
1.56
